Consider the following compounds; for each one, report its selectivity ratio.
Assay: Selectivity index, ratio of IC50 for rat L6 cells to IC50 for Leishmania donovani MHOM/SD/62/1S-CL2D axenic amastigotes
Assay type: toxicity, cell-based
Conditions: read-out: Ratio IC50
Just the number, please.

Query: I am curious: what selectivity ratio value has been reported for N=C(N)c1ccc(S(=O)(=O)CCCCCS(=O)(=O)c2ccc(C(=N)N)cc2)cc1 ?
Reply: 2

Query: I am curious: what selectivity ratio value has been reported for Cl.Cl.N=C(N)c1ccc(OCCCOc2ccc(C3=NCCN3)cc2)cc1 ?
Reply: 24

Query: I am curious: what selectivity ratio value has been reported for c1cc(-c2nnn[nH]2)ccc1OCCCCCOc1ccc(-c2nnn[nH]2)cc1 ?
Reply: 2
